- Test method notes: recombinant UMI read abundance after kanamycin selection (control-corrected) (log10(CPM+1)); higher = more efficient recombination; extreme values may be limits of the assay; sequences stand for … in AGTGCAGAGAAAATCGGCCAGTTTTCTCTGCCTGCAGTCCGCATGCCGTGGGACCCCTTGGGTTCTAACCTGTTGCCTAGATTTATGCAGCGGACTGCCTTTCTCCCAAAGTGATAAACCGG…AGGTTGGTTTCACT; site = the 11-nt donor
Each entry below carries its reported recombinant UMI read abundance (log10).
I'd appreciate a reply containing only the number, no unit.

For orientation, consider the following solved cases.
AGAAGGCCATGGACCGGTTTTCCCGGTAATCCGTATTTGAC (site ATAAGGCCTGT); 0
CGACGGTCATGGACCGGTTTTCCCGGTAATCCGTATTTGTC (site CGACGGTCTGA); 2.77
TCATCCTCATGGACCGGTTTTCCCGGTAATCCGTATTTGGC (site TCATCCTCTGC); 0

Task: So what does the record say about recombinant UMI read abundance (log10) for TTCAATTCATGGACCGGTTTTCCCGGTAATCCGTATTTGCC (site TGCAATTCTGG) ?
Output: 0

Task: So what does the record say about recombinant UMI read abundance (log10) for CAAGCGCCATGGACCGGTTTTCCCGGTAATCCGTATTTGTG (site GAAGCGCCTCA) ?
Output: 0.0137

====

- Test method notes: recombinant barcode read abundance after kanamycin selection (control-corrected) (log10(CPM+1)); higher = more efficient recombination; sequences stand for … in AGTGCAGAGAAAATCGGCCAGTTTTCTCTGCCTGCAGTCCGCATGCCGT…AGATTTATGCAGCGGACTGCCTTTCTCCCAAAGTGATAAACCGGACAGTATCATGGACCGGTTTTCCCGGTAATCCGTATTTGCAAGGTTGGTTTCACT; site = the 11-nt target
Assign t to entries whose recombinant barcode read abundance (log10) meets or exceeds 0.1; assign f to the rest.

Example entries and their recorded answers appear below.
GTGTACCCTTGGGTTCTAACCTGTTGCGC (site GTGTACCCTAC); t
TCAGATTCTTGGGTTCTAACCTGTTGCCT (site TCAAATTCTAG); f
GAGTTGTCTTGGGTTCTAACCTGTTGCGG (site GAGTTGTCTCC); t

Alright, here's another sequence for you.
Task: Could you verify whether the entry TCTGTGTCTTGGGTTCTAACCTGTTGCTA (site ATATCAACTCG) shows recombinant barcode read abundance (log10) of no less than 0.1?
Output: f

====

- Test method notes: recombinant UMI read abundance after kanamycin selection (control-corrected) (log10(CPM+1)); higher = more efficient recombination; extreme values may be limits of the assay; sequences stand for … in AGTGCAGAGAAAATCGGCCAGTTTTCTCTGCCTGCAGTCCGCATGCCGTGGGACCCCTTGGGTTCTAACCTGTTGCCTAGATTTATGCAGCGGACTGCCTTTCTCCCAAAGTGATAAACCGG…AGGTTGGTTTCACT; site = the 11-nt donor
Each entry below carries its reported recombinant UMI read abundance (log10).
I'd appreciate a reply containing only the number, no unit.

CAGTCGACATGGACCGGTTTTCCCGGTAATCCGTATTTGGC (site CAGTCGACTGC); 1.37

Task: So what does the record say about recombinant UMI read abundance (log10) for CTCGTAACATGGACCGGTTTTCCCGGTAATCCGTATTTGAC (site CTCGTAACTGT) ?
Output: 2.56

Task: So what does the record say about recombinant UMI read abundance (log10) for GATGTAACATGGACCGGTTTTCCCGGTAATCCGTATTTGCT (site AATGTAACTAG) ?
Output: 1.24
